Let's look at some molecules and their measured recovery at 120 min, 3 μM.
experiment: in vitro; conditions: human, Caco-2, pH 7.4, Caco-2 Mean Recovery % B to A

[
  {
    "smilesStr": "O=C(Cc1cccs1)N[C@@H]1C(=O)N2C(C(=O)O)=C(CSc3cccc[n+]3[O-])CS[C@H]12",
    "endpointResult": "< 99.8%"
  },
  {
    "smilesStr": "O=C(O)C1=C(CSc2cccc[n+]2[O-])CS[C@@H]2[C@H](NC(=O)/C(=N\\Oc3ccccc3)c3ccco3)C(=O)N12",
    "endpointResult": "< 89.8%"
  }
]

Here is another molecule to look at.
Fill in: recovery at 120 min, 3 μM of CN(C)C(=S)SCC1=C(C(=O)O)N2C(=O)[C@@H](NC(=O)Cc3cccs3)[C@H]2SC1 is ___ < 103%

----------
tested on: Caco-2 cells; test: Caco-2 permeability / efflux transporter substrate; settings: Caco-2
quantity: Caco-2 Mean Recovery % B to A

Some solved cases for reference:
[
  {
    "molecule": "CNCc1ccccc1CC(=O)N[C@@H]1C(=O)N2C(C(=O)O)=C(CSc3nnnn3C)CS[C@H]12",
    "targetEntity": "Caco-2 cells",
    "Caco-2 Mean Recovery % B to A": "< 109.10%"
  },
  {
    "molecule": "O=C(O)C1=C(CSc2cccc[n+]2[O-])CS[C@@H]2[C@H](NC(=O)C(F)c3ccccc3)C(=O)N12 (stereo partly shown)",
    "targetEntity": "Caco-2 cells",
    "Caco-2 Mean Recovery % B to A": "< 112.70%"
  },
  {
    "molecule": "CCCc1nnc(SCC2=C(C(=O)O)N3C(=O)[C@@H](NC(=O)Cc4ccc(C(=N)N)cc4)[C@H]3SC2)s1",
    "targetEntity": "Caco-2 cells",
    "Caco-2 Mean Recovery % B to A": "< 107.68%"
  }
]

Here is another molecule to look at.
Fill in: Caco-2 Mean Recovery % B to A of CC(=O)OCC1=C(C(=O)O)N2C(=O)[C@@H](NC(=O)CSc3ccncc3)[C@H]2SC1 is ___ < 102.87%

----------
Let's look at some molecules and their measured Tlast.
details: 300 mg/kg sc, uninfected DHP-1 mice

[
  {
    "molecule": "O=C(Cc1ccc(C2=NCCN2)cc1)N[C@@H]1C(=O)N2C(C(=O)O)=C(CSc3nncs3)CS[C@H]12",
    "endpointResult": "2.0 to 4.0 h"
  },
  {
    "molecule": "NC(C(=O)N[C@@H]1C(=O)N2C(C(=O)O)=C(CSc3cccc[n+]3[O-])CS[C@H]12)c1ccc(O)cc1 (stereo partly drawn)",
    "endpointResult": "2.0 to 4.0 h"
  }
]

Here is another molecule to look at.
Fill in: Tlast of O=C(Cc1cccs1)N[C@@H]1C(=O)N2C(C(=O)O)=C(CSc3cccc[n+]3[O-])CS[C@H]12 is ___ 2.0 to 4.0 h

----------
test system: Mtb H37Rv; test: MIC90 against nonreplicating (NR, 4-stress) Mtb H37Rv, with or without clavulanate; assay type: cell-based, Mycobacterium tuberculosis; details: 4-stress nonreplicating, clavulanate 4 μg/mL; Table S4
quantity: Mtb H37Rv NR + CLAV (MIC90) (µM)
Provide the reading as a plain figure in µM.

[
  {
    "smilesStr": "O=C(Cc1cccs1)N[C@@H]1C(=O)N2C(C(=O)O)=C(CSc3cccc[n+]3[O-])CS[C@H]12",
    "targetEntity": "Mtb H37Rv",
    "quantity": "Mtb H37Rv NR + CLAV (MIC90)",
    "quantityUnit": "µM",
    "endpointResult": 2.2
  },
  {
    "smilesStr": "CCc1nnc(SCC2=C(C(=O)O)N3C(=O)[C@@H](NC(=O)Cc4ccc(C5=NCCN5)cc4)[C@H]3SC2)s1",
    "targetEntity": "Mtb H37Rv",
    "quantity": "Mtb H37Rv NR + CLAV (MIC90)",
    "quantityUnit": "µM",
    "endpointResult": 92.2
  }
]

Here is another compound to look at.
Fill in: Mtb H37Rv NR + CLAV (MIC90) of CC=CC(=O)OCC1=C(C(=O)O)N2C(=O)[C@@H](NC(=O)C(=NO)c3cccs3)[C@H]2SC1 is ___ 84.6
